# method: Concentration of test compound in eye tissue and blood after continuous subcutaneous administration by implanted mini-pump (EIA)
# Type: in vivo, JW (clean) strain female rabbits
# conditionContext: sc, 2.5 mg/animal/day; Retinochoroid; Day 5 of continuous subcutaneous administration (2.5 mg/rabbit/day); n = 6; read-out: Mean concentration in tissue ± S.E.
recordedEndpoint: concentration at 120 h (ng/g)
Expressed in ng/g, but write only the number.

Enquiry: For the compound CNC(=O)OC1CCC2(CO2)C(C2(C)OC2CC=C(C)C)C1OC (stereo not shown) , give its reported concentration at 120 h.
Return: 0.6

###

# method: Concentration of test compound in eye tissue and blood after continuous subcutaneous administration by implanted mini-pump (EIA)
# Assay type: in vivo, JW (clean) strain female rabbits
# conditionContext: sc, 2.5 mg/animal/day; Whole blood, Day 1 (n=3); continuous subcutaneous administration (2.5 mg/rabbit/day); read-out: Mean concentration in tissue ± S.E.
recordedEndpoint: concentration at 24 h (ng/g)
Number only, in ng/g; omit the unit.

Enquiry: Report concentration at 24 h for CNC(=O)OC1CCC2(CO2)C(C2(C)OC2CC=C(C)C)C1OC (stereo not shown)
Return: 30.6
